Origin of measurements: the METLIN SMRT retention time set (Domingo-Almenara et al. 2019)

assay: gradient 5% acetonitrile 3 min, to 50% in 2 min, to 85% in 15 min, held 3 min, 100 µL/min; settings: column: Zorbax Extend-C18 2.1 x 50 mm; eluents: water / acetonitrile, 0.1% formic acid
REPORTED METRIC: RP-LC retention time
Please make sure the unit comes right after the number.

Solved entries (count: 8):
# COMPOUND, RP-LC retention time
data = [
    ("CC1CCN(C(=O)c2ccc3ccnc(N4CCN(c5ccc(Cl)cc5)CC4)c3c2)CC1", "982 s"),
    ("Cc1ccc(-n2cc3c(N4CCCC(C(=O)NCc5ccc(C(C)C)cc5)C4)ncnc3n2)cc1 (centres undefined)", "836 s"),
    ("OC[C@@H]1CN(Cc2ccc3[nH]ccc3c2)C[C@H]1c1ccccn1", "580 s"),
    ("CCn1cnc(S(=O)(=O)N2CCCC(C(=O)Nc3cccc(Cl)c3)C2)c1 (centres undefined)", "797 s"),
    ("O=C(Cc1nc(-c2ccccc2)n[nH]1)Nc1ccc(F)c(F)c1", "757 s"),
    ("CC1CCN(c2cc(-n3cnc(C(=O)N4CCc5ccccc5C4)c3)ncn2)CC1", "1060 s"),
    ("Cc1cc(C)n(CCNC(=O)NCc2cccs2)n1", "593 s"),
    ("CNC(=O)c1cc(-c2cccc(OC)c2)n[nH]1", "665 s"),
]

// batch mode: one RP-LC retention time value per listed entry
1. Cc1ccc(NS(=O)(=O)c2cc3n(c2)CCCNC3=O)cc1F
2. Cc1ccccc1NC(=O)N1CCC2(C1)C(=O)Nc1ccccc12 (centres undefined)
3. CC(C)c1ccc(S(=O)(=O)NCc2ccsc2)cc1
4. CC(C)NC(=O)CN1CCN(Cc2nc(-c3ccc(N4CCCCC4)nc3)no2)CC1
5. O=C1C(=O)N(C2CCN(C(=O)c3ccc(Br)o3)CC2)CCN1Cc1ccccc1
6. CCN1C(=O)C(CC(=O)N2CCCC2)Sc2ncccc21 (centres undefined)

## Output
["669 s", "727 s", "954 s", "594 s", "706 s", "654 s"]

Hey, can you go through the list below and give me RP-LC retention time for every item?
1. CCOC(=O)c1nc(NCCc2cc(OC)ccc2OC)c2ccccc2n1
2. Cc1nccn1CCNC(=O)C(=O)Nc1ccc(OC(F)(F)F)cc1

## Output
1: 768 s; 2: 580 s

Please go through the list and note RP-LC retention time for each compound.
1. CCc1nnc(-c2ccc3ccn(CC(=O)N4CCN(c5ccccn5)CC4)c3c2)o1
2. O=C(NCCCn1ccnc1)C(=O)Nc1c2c(nn1-c1cccc(Cl)c1)CSC2

## Output
["614 s", "568 s"]

Consider the following items and state reported RP-LC retention time for each.
1. Cc1noc(-c2ccc(OC3CN(S(=O)(=O)c4c(C)noc4C)C3)cc2)n1
2. COc1ccc(-c2cn3c(CC(=O)N4CCOCC4)csc3n2)cc1OC
3. CCNC(=O)c1ncn2c1C(=O)N(C1CC1)C(C)(C(=O)NCc1ccccc1)C2 (centres undefined)
4. Cn1nc(C(=O)N2CCCCC2)c2c1CCN(C(=O)CCC(=O)NC1CCCCCC1)C2
5. COc1cc(NC(=O)C2CCCN(c3nnc4ccc(Cl)cn34)C2)cc(OC)c1OC (centres undefined)
6. C=CCN1C(=O)COc2ccc(-c3csc(NC(=O)c4ccc(OC)c(OC)c4)n3)cc21
7. CCOC(=O)c1ccc(NC(=O)C2CCC(=O)N2S(=O)(=O)c2ccc(C)c(C)c2)cc1 (centres undefined)

## Output
943 s
607 s
656 s
728 s
734 s
943 s
978 s

For the 5 compounds below, give their RP-LC retention time values.
1. CCCOc1ccc(Br)cc1-c1cc(-c2ccc(Cl)cc2)[nH]c1-c1ccncc1
2. Cc1cc(C(=O)Nc2ccc3c(c2)CCC(=O)N3)no1
3. O=C(NCc1ccc(F)cc1)c1nnc(-c2ccc(S(=O)(=O)N3CCCC3)cc2)o1
4. Cn1cnnc1SCC(=O)Nc1ccc(F)cc1
5. Cc1cc(N2CCN(S(=O)(=O)c3cc(F)ccc3F)CC2)nc(N2CCCCC2)n1

## Output
1040 s
637 s
888 s
603 s
769 s

Kindly give each listed record's RP-LC retention time.
1. CC1CCN(c2cc(-n3ccnc3)ncn2)CC1
2. Cc1nc2cc(-c3noc(C4CC(=O)N(c5cccc(Cl)c5)C4)n3)ccc2o1 (centres undefined)
3. Cc1c(S(=O)(=O)NCc2ccccc2Cl)c(C)n(C)c1-c1nnc(C2CCC2)o1

## Output
651 s
958 s
1000 s

I need RP-LC retention time for every entry listed below, if you could help.
1. Cc1csc(-c2cc(S(=O)(=O)N3CCCCC3)cn2CC(=O)N2CCCCC2)n1
2. COc1ccc(-c2noc(C3CCCN3C(=O)Nc3ccc(OC)cc3OC)n2)cc1 (centres undefined)
3. CCN1C(=O)c2cccnc2Sc2cc(NC(=O)COc3cccc(C)c3)ccc21
4. Cc1nnc2n1CCC(NC(=O)CC1=CCCCC1)CC2 (centres undefined)
5. Cc1cc(=O)n(CC(=O)Nc2ccccc2F)c(-c2ccc(F)cc2)n1

## Output
1020 s
952 s
931 s
605 s
1040 s

In plain terms, O=C(NC1CCCCC1)C1CCCN(c2nccn3nc(-c4ccccc4Cl)cc23)C1 (centres undefined) has a documented RP-LC retention time of 976 s
